# TEST_METHOD_NOTES: Solubility in solvents
# Assay type: physicochemical
# PROTOCOL_CONDITIONS: organic solvents, organic solvent or mixture, toluene and heptane
# Description: Compound I is poorly soluble (between 1 and 25 mg/ml) in acetonitrile, dicholormethane, methyl-tert-butyl ether, nitromethane. In toluene and heptane, compound I is sparingly soluble (<1 mg/ml).
MEASUREMENT_LABEL: solubility

// recorded solubility for OC[C@@H](O)c1cc(F)c(CN[C@H]2C[C@H](Oc3ccc(F)c(C(F)(F)F)c3)C2)c2ccncc12 (single isomer, unassigned) : < 1000 µg/mL
